Origin of values: ChEMBL document CHEMBL1134675

Molecular target: Sodium/potassium-transporting ATPase
Assay: Binding affinity towards Na+,K+ -ATPase isolated from dog kidney.
Format: protein-complex assay, Canis lupus familiaris
valueKind: pIC50
pIC50 field: float, defined as -log10 of concentration (mol/L).

Problem: State its pIC50 for this compound: CC[C@@H](/C=N/OCCN(C)C)[C@@]1(C)CCC2C(CC[C@H]3C[C@@H](O)CC[C@]23C)C1=O (stereo partly specified)
Result: 6.30

Problem: Look up and report measured pIC50 for this entry: "C[C@]12CC[C@H](O)C[C@H]1CC[C@@H]1[C@@H]2CC[C@]2(C)[C@H](/C=N/OCCN)CC[C@]12O"
Result: 6.40

Problem: Tell me its pIC50 given CC[C@H](/C=N/OCCN(C)C)[C@@]1(C)CCC2C(CC[C@@H]3C[C@@H](O)CC[C@]23C)C1=O (stereo partly specified) as the entry.
Result: 5.40

Problem: Specify measured pIC50 for "C[C@]12CC[C@H](O)C[C@H]1CC[C@@H]1[C@@H]2CC[C@]2(C)[C@H](C/C=N/OCCN)CC[C@]12O" .
Result: 7.30

Problem: Output measured pIC50 for this item: C[C@@H](C/C=N/OCCN(C)C)[C@@]1(C)CCC2C(CC[C@@H]3C[C@@H](O)CC[C@]23C)C1=O (stereo partly specified)
Result: 6.89

Problem: For the compound "C[C@]12CC[C@H](O)C[C@H]1CC[C@@H]1[C@@H]2CC[C@]2(C)[C@H](C/C=N/OCCCCN)CC[C@]12O" , give its measured pIC50 value.
Result: 6.10

Problem: Give the measured pIC50 for "CN(C)CCO/N=C/C[C@@H]1CC[C@]2(O)[C@@H]3CC[C@@H]4C[C@@H](O)CC[C@]4(C)[C@H]3CC[C@]12C"
Result: 6.60

Problem: Given CC[C@@H](C/C=N/OCCN(C)C)[C@@]1(C)CCC2C(CC[C@H]3C[C@@H](O)CC[C@]23C)C1=O (stereo partly specified) , respond with its pIC50.
Result: 6.60

Problem: # return recorded pIC50 for entry "C[C@]12CC[C@H](O)C[C@H]1CC[C@@H]1[C@@H]2CC[C@]2(C)[C@H](/C=N/OCCCN)CC[C@]12O"
Result: 6.40

Problem: Assign pIC50 to the following record: CC[C@@H](C/C=N/OCCN)[C@@]1(C)CCC2C(CC[C@H]3C[C@@H](O)CC[C@]23C)C1=O (stereo partly specified)
Result: 6.80

Problem: Tell me measured pIC50 for CCC[C@@H](C/C=N/OCCN)[C@@]1(C)CCC2C(CC[C@@H]3C[C@@H](O)CC[C@]23C)C1=O (stereo partly specified) please.
Result: 6.70

---

Species: Cavia porcellus
Test: In vitro increase in contractile force of the guine pig atrium.
Assay type: functional, organism-based
Settings: Cardiac atrium
valueKind: pEC50
Scale explanation: pEC50 corresponds to minus log10 of a concentration expressed in moles per litre.

Problem: Please give measured pEC50 of the following entry: CC[C@@H](C/C=N/OCCN(C)C)[C@@]1(C)CCC2C(CC[C@@H]3C[C@@H](O)CC[C@]23C)C1=O (some centres not stated)
Result: 5.70

Problem: Give the reported value of pEC50 for this record: CC[C@@H](C/C=N/OCCN)[C@@]1(C)CCC2C(CC[C@@H]3C[C@@H](O)CC[C@]23C)C1=O (some centres not stated)
Result: 5.82

Problem: # return recorded pEC50 for entry "C[C@]12CC[C@H](O)C[C@H]1CC[C@@H]1[C@@H]2CC[C@]2(C)[C@H](C/C=N/OCCN)CC[C@]12O"
Result: 5.46

Problem: State its pEC50: CCC[C@@H](C/C=N/OCCN)[C@@]1(C)CCC2C(CC[C@@H]3C[C@@H](O)CC[C@]23C)C1=O (some centres not stated)
Result: 5.25

Problem: Annotate the molecule C[C@@H](C/C=N/OCCN(C)C)[C@@]1(C)CCC2C(CC[C@@H]3C[C@@H](O)CC[C@]23C)C1=O (some centres not stated) with its measured pEC50.
Result: 5.52

Problem: // fetch pEC50 given entry "C[C@]12CC[C@H](O)C[C@H]1CC[C@@H]1[C@@H]2CC[C@]2(C)[C@@H](C3=CC(=O)OC3)CC[C@]12O"
Result: 6.24

Problem: Give pEC50 for "C[C@]12CC[C@H](O)C[C@H]1CC[C@@H]1[C@@H]2CC[C@]2(C)[C@H](/C=N/OCCCN)CC[C@]12O"
Result: 4.74
